# target of assay: UniProtKB O60674
# Sequence (O60674 whole entry): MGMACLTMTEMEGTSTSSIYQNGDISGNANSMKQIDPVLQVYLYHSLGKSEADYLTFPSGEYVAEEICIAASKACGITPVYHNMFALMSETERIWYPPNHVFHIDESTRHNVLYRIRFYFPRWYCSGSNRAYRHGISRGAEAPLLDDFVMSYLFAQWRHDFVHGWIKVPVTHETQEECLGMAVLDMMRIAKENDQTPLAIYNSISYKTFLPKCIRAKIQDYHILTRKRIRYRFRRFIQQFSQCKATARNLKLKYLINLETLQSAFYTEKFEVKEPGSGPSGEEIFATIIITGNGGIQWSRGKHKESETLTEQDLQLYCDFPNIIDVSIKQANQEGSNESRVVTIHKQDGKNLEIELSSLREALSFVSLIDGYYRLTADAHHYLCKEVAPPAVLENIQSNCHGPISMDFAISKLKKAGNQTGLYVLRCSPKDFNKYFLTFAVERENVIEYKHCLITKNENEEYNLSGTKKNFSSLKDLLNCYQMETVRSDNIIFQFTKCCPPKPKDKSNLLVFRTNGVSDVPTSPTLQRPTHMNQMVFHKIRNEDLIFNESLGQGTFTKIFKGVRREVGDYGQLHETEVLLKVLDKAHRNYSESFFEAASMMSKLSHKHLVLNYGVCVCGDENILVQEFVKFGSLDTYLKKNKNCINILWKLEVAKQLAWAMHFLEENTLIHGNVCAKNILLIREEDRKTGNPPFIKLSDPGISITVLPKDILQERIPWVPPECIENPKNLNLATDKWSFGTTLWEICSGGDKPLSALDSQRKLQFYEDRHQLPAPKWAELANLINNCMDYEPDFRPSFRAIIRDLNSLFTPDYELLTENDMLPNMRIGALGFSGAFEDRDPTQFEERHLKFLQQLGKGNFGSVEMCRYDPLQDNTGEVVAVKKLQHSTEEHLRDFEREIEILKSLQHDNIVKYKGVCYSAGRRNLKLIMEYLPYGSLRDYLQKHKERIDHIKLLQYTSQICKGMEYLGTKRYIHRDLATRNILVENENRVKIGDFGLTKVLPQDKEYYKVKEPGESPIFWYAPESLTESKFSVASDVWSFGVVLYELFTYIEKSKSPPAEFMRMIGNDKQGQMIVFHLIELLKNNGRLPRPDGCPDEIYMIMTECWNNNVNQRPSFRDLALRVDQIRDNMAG
# assay summary: HTRF kinase assay, JAK2
# Type: biochemical
# condition label: Table 6
assay endpoint: log10 IC50 (log10 of the value in nM)
All values: log10 IC50 [nM].

Please give the documented log10 IC50 of CN1CCN(c2ccc(Nc3ncc4ccn(-c5cccc(NS(=O)(=O)C6CC6)c5)c4n3)cc2)CC1 [drawing 356] 0.90

Please give the documented log10 IC50 of CC(C)(C)S(=O)(=O)Nc1cc(-n2ccc3cnc(Nc4cc(F)c5c(c4)CC4CNCCN54)nc32)ccc1F (stereo not shown) [drawing 443] 1.60

Please give the documented log10 IC50 of Cc1cnc(Nc2ccc(N3CCN(C)CC3)cc2)nc1Nc1cccc(NS(=O)(=O)C(C)(C)C)c1 [drawing 258] 1.00

Please give the documented log10 IC50 of NC(=O)N1CCN(c2ccc(Nc3ncc4ccn(-c5cccc(NS(=O)(=O)C6CC6)c5)c4n3)cc2)CC1 1.04

Please give the documented log10 IC50 of Cc1cnc(Nc2ccc(N3CCN(C)CC3)cc2)nc1Nc1cccc(NS(=O)(=O)C(C)(C)C)c1 [drawing 292] 0.95

Please give the documented log10 IC50 of CNCCNc1ccc(Nc2ncc3ccn(-c4cccc(NS(=O)(=O)C(C)(C)C)c4)c3n2)cc1 1.38

Please give the documented log10 IC50 of COc1cc(Nc2ncc3scc(-c4cccc(NS(=O)(=O)C(C)(C)C)c4)c3n2)ccc1N1CCNCC1 0.60

Please give the documented log10 IC50 of CC(C)(C)S(=O)(=O)Nc1cccc(-c2csc3cnc(Nc4cc(F)c5c(c4)CC4CNCCN54)nc23)c1 (stereo not shown) 0.70

Please give the documented log10 IC50 of Cc1cnc(Nc2ccc(N3CCN(C)CC3)cc2)nc1Nc1cccc(NS(=O)(=O)C(C)(C)C)c1 [drawing 245] 0.60

Please give the documented log10 IC50 of CN(C)C1CCN2c3ccc(Nc4ncc5ccn(-c6cccc(NS(=O)(=O)C(C)(C)C)c6)c5n4)cc3CC2C1 (stereo not shown) [drawing 445] 1.08

Please give the documented log10 IC50 of CN1CCC(NC(=O)c2ccc(Nc3ncc4ccn(-c5cccc(NS(=O)(=O)C(C)(C)C)c5)c4n3)cc2F)CC1 1.06

Please give the documented log10 IC50 of CN1CCN(c2ccc(Nc3nc(Nc4ccc(Cl)c(NS(=O)(=O)C(C)(C)C)c4)c4sccc4n3)cc2)CC1 4.00

Please give the documented log10 IC50 of O=S(=O)(Nc1cc(-n2ccc3cnc(Nc4ccc(N5CCNCC5)cc4)nc32)ccc1F)C1CC1 1.16

Please give the documented log10 IC50 of Cc1noc(C)c1-c1cccc(-n2ccc3cnc(Nc4ccc(N5CCN(C)CC5)cc4)nc32)c1 [drawing 285] 0.48

Please give the documented log10 IC50 of CC(C)(C)S(=O)(=O)Nc1cc(-n2ccc3cnc(Nc4ccc(N5CCNC(=O)C5)c(F)c4)nc32)ccc1F 2.15

Please give the documented log10 IC50 of CN1CCN(c2ccc(Nc3ncc4scc(-c5cccc(NS(=O)(=O)C(C)(C)C)c5)c4n3)cc2F)CC1 1.26

###

# target of assay: BRDT-BD1 (Homo sapiens (Human), UniProt Q58F21)
# assay summary: AlphaLisa bromodomain binding assay, BRDT-BD1
# condition label: Table 6; read-out: BRDT(1) IC50
Assign IC50 to each entry below.
Kindly provide the numeric value in µM only, without the unit symbol.

Please give the documented IC50 of CNC1CCN(c2ccc(Nc3ncc4ccn(-c5ccc(F)c(NS(=O)(=O)C(C)(C)C)c5)c4n3)cc2F)CC1 [drawing 456] 0.185

Please give the documented IC50 of CN1CCN(c2ccc(Nc3ncc4ccn(-c5cccc(NS(=O)(=O)C6CC6)c5)c4n3)cc2)CC1 [drawing 278] 2.5

Please give the documented IC50 of O=S(=O)(Nc1cccc(-n2ccc3cnc(Nc4ccc(N5CCNCC5)cc4)nc32)c1)C1CC1 [drawing 296] 1.21

Please give the documented IC50 of CN(C)C1CCN(c2ccc(Nc3ncc4scc(-c5ccc(F)c(NS(=O)(=O)C6(C)CC6)c5)c4n3)cc2F)CC1 0.329

Please give the documented IC50 of CNCCNC(=O)Cc1ccc(Nc2ncc3ccn(-c4cccc(NS(=O)(=O)C(C)(C)C)c4)c3n2)cc1 0.268

Please give the documented IC50 of CC(C)(C)S(=O)(=O)Nc1cccc(-n2ccc3cnc(Nc4ccc(N5CCNCC5)cc4)nc32)c1 [drawing 283] 0.632

Please give the documented IC50 of CN(C)C1CCN(C(=O)c2ccc(Nc3ncc4ccn(-c5cccc(NS(=O)(=O)C(C)(C)C)c5)c4n3)cc2F)CC1 0.189

Please give the documented IC50 of CC(C)(C)S(=O)(=O)Nc1cccc(-c2csc3cnc(Nc4ccc5c(c4)CCN4CCNCC54)nc23)c1 (centres unmarked) 0.281
